Value source: PubChem BioAssay (NCI)

test system: KM12 colon; test: NCI tumour cell line growth inhibition, 48 h
GI50 by entry:

| molecule | measured.on | GI50 |
| --- | --- | --- |
| Nc1c(C(=O)c2cccc(-c3ccncc3)c2)cnn1-c1ccc(F)cc1 | KM12 colon | > 25000 nM |

Incoming: What measured GI50 goes with c1ccc(-c2nc([P+](c3ccccc3)(c3ccccc3)c3ccccc3)c(N3CCOCC3)o2)cc1 ?
Outgoing: 385 nM

Incoming: What measured GI50 goes with CC(C)CC(=O)[O-].CC(C)CC(=O)[O-].N.N.N.N.[Co+3].[O-][Cl+3]([O-])([O-])O.[O-][Cl+3]([O-])([O-])[O-] ?
Outgoing: > 100000 nM

Incoming: What measured GI50 goes with O=C(Nc1ccc(-n2ccc3c(NC(=O)c4ccccc4)ncnc32)cc1)c1ccc(Cl)c(C(F)(F)F)c1 ?
Outgoing: 939 nM

Incoming: What measured GI50 goes with CNCCC/C=C1\c2cc3c(cc2-c2c1c1cc(OC)c(OC)cc1c(=O)n2C)OCO3 ?
Outgoing: 1920 nM

Incoming: What measured GI50 goes with O=c1c2[nH]ccc2nc2n1CCS2 ?
Outgoing: > 100000 nM

Incoming: What measured GI50 goes with O=C(c1cccs1)c1c(C(F)(F)F)n([O-])c2ccc(Cl)cc2[n+]1=O ?
Outgoing: 111 nM

Incoming: What measured GI50 goes with C=C1C(=O)O[C@H]2[C@H]1CC/C(COC(=O)NCc1c[nH]c3ccc(Br)cc13)=C\CC[C@@]1(C)O[C@@H]21 ?
Outgoing: 2230 nM

Incoming: What measured GI50 goes with COC(=O)C1C(O)C(C)C(O)C(C)(O)/C=C/C=C(C)C(=O)Nc2c(C)c(OC(C)=O)c3c(c2O)C(=O)C(C)=C2OCOC(=C23)C(C)=CC(C)(O)C(O)C(C)C1OC(C)=O (stereo not given) ?
Outgoing: 19200 nM

Incoming: What measured GI50 goes with CNC[C@@H](NC(=O)c1ccc(-c2nc([C@H]3CC[C@H](O)[C@@H](F)C3)cnc2N)cc1F)c1cc(F)cc(Br)c1 ?
Outgoing: 16000 nM

----------
test system: RPMI-8226 leukemia; assay: NCI tumour cell line growth inhibition, 48 h
TGI by entry:
Response body: numeric value in µM, unit text excluded.

| compound | TGI [µM] |
| --- | --- |
| COc1ccc(N2C(=O)C3c4[nH]c5c(C)cccc5c4C4CCC(c5ccccc5)CC4C3C2=O)cc1 (stereo not given) | 30.4 |

Incoming: What measured TGI goes with CNC[C@@H](NC(=O)c1ccc(-c2nc([C@H]3CC[C@H](O)[C@@H](F)C3)cnc2N)cc1F)c1cc(F)cc(Br)c1 ?
Outgoing: 30.8

----------
test system: MDA-MB-435; experiment: NCI tumour cell line growth inhibition, 48 h
measurement.kind: TGI

| compound | TGI |
| --- | --- |
| CN(C)CCNC(=O)c1cccc(NC(=O)c2ccccc2)c1[N+](=O)[O-] | > 100 µM |
| COc1nc2ncc([C@@H](O)[C@H](O)CO)nc2c(=O)n1C | > 100 µM |

# input for lookup
Incoming: What measured TGI goes with Nc1ncnc2c1ncn2C1OC(CO)C2OC21 (stereo not drawn) ?
Outgoing: > 10 µM

----------
TGI by entry:
system: NCI-H23 lung; test: NCI tumour cell line growth inhibition, 48 h

| test.smiles | TGI |
| --- | --- |
| Cc1cc(NS(=O)(=O)c2ccc(NC(=O)c3ccc(Cl)c4c(Nc5ccc(S(N)(=O)=O)cc5)c5ccccc5nc34)cc2)no1 | 49.3 µM |
| CC(C)CC(=O)[O-].CC(C)CC(=O)[O-].N.N.N.N.[Co+3].[O-][Cl+3]([O-])([O-])O.[O-][Cl+3]([O-])([O-])[O-] | > 100 µM |

# input for lookup
Incoming: What measured TGI goes with c1ccc([P+](c2ccccc2)(c2ccccc2)c2ccc([P+](c3ccccc3)(c3ccccc3)c3ccccc3)c3ccccc23)cc1 ?
Outgoing: > 100 µM

----------
test system: HCT-15 colon; assay: NCI tumour cell line growth inhibition, 48 h
TGI by entry:

| molecule | measurement.kind | result.value |
| --- | --- | --- |
| O=c1[nH]nc(NCCc2ccccc2)c2nnn(Cc3ccccc3)c12 | TGI | > 100 µM |
| CCc1cccc(C)c1NC(=O)CCc1nnc(SC)o1 | TGI | > 100 µM |
| Nc1ncnc2c1ncn2C1OC(CO)C2OC21 (stereo unspecified) | TGI | > 10 µM |
| O=c1ccc2[n+]([O-])c3ccc(O)cc3oc-2c1 | TGI | > 47.9 µM |
| Cc1ccc(-c2cc(=S)n(-c3ccccc3)c3nc(=S)n(-c4ccccc4)c(N)c23)cc1 | TGI | > 100 µM |

Incoming: What measured TGI goes with Nc1ccc(C(=O)N/C(=C\c2cccc([N+](=O)[O-])c2)c2nc3ccccc3[nH]2)cc1 ?
Outgoing: > 100 µM

Incoming: What measured TGI goes with N=c1c2ccccc2nc2oc3ccccc3n12 ?
Outgoing: > 100 µM

Incoming: What measured TGI goes with CCO/C(O)=C(/C(=N)N1CCOCC1)C(=O)Nc1cccc(Cl)c1 ?
Outgoing: > 100 µM

Incoming: What measured TGI goes with NC(N)=N/N=C\c1c(-c2cccc([N+](=O)[O-])c2)nc2sc(Cl)cn12 ?
Outgoing: > 100 µM

Incoming: What measured TGI goes with NC(N)=NS(=O)(=O)c1ccc(NC(=O)c2cccc3cc4ccccc4nc23)cc1 ?
Outgoing: > 100 µM

Incoming: What measured TGI goes with COC1OC(Cn2c(C)nc(Br)c2Br)C(O)C(O)C1O (stereo unspecified) ?
Outgoing: > 100 µM

----------
system: MDA-N; assay: NCI tumour cell line growth inhibition, 48 h
measurement.kind: TGI

Incoming: Value wanted: TGI (MDA-N) of entry COC1OC(Cn2c(C)nc(Br)c2Br)C(O)C(O)C1O (centres undefined)
Outgoing: > 100 µM

Incoming: Value wanted: TGI (MDA-N) of entry Nc1nc2c(ncn2C2C=CC(COS(N)(=O)=O)C2)c(=O)[nH]1 (centres undefined)
Outgoing: > 100 µM

Incoming: Value wanted: TGI (MDA-N) of entry Nc1ncnc2c1ncn2C1OC(CO)C2OC21 (centres undefined)
Outgoing: > 10 µM

Incoming: Value wanted: TGI (MDA-N) of entry Nc1nnnn1NC(=O)NCCCl
Outgoing: > 10 µM

Incoming: Value wanted: TGI (MDA-N) of entry Cc1nn(CN2CCN(C)CC2)c(=S)n1/N=C/c1ccc(-c2ccc(Cl)cc2Cl)o1
Outgoing: > 100 µM

Incoming: Value wanted: TGI (MDA-N) of entry Cc1cc2nn(C3CCCO3)nc2cc1C (centres undefined)
Outgoing: > 100 µM

Incoming: Value wanted: TGI (MDA-N) of entry Clc1ccc(Cc2nc3cc(Cl)ccc3o2)cc1
Outgoing: > 100 µM

Incoming: Value wanted: TGI (MDA-N) of entry COc1ccc(N2CCOCC2)cc1
Outgoing: > 100 µM

Incoming: Value wanted: TGI (MDA-N) of entry C=C[C@]1(C)C[C@@H](OC(=O)CO)[C@@]2(C)[C@H](C)CC[C@]3(CCC(=O)[C@H]32)[C@@H](C)[C@@H]1O
Outgoing: > 100 µM

----------
tested on: T-47D breast; assay: NCI tumour cell line growth inhibition, 48 h
TGI by entry:

Observe how each entry below is paired with its result.
| molecule | TGI |
| --- | --- |
| O=C(O)C1(Cc2ccccc2)Cc2ccccc2C1 | > 100 µM |
| O=c1c2[nH]ccc2nc2n1CCS2 | > 100 µM |
| CC(C)CNC(=O)c1ccc(NC(=O)N(CC(C)C)C(=O)c2ccc(N)c(OCCCN)c2)c(OCCCN=C(N)N)c1 | > 62.5 µM |
| COc1ccc(OC)c(CCc2cc(OC)ccc2OC)c1 | > 10 µM |

Incoming: What measured TGI goes with COc1c(Cl)nc2ccccc2c1N=[N+]=[N-] ?
Outgoing: > 100 µM

Incoming: What measured TGI goes with CCNC(=O)OCC1C2=C(C(=O)C(C)=C(N)C2=O)N2CC3C(N3C)C12OC (configuration not stated) ?
Outgoing: > 100 µM

Incoming: What measured TGI goes with O=C1CCN(CCC(F)(F)C(F)(F)C(F)(F)C(F)(F)C(F)(F)C(F)(F)F)C(=S)N1CCC(F)(F)C(F)(F)C(F)(F)C(F)(F)C(F)(F)C(F)(F)F ?
Outgoing: > 100 µM

----------
test system: UACC-257 melanoma; assay: NCI tumour cell line growth inhibition, 48 h
TGI by entry:
Response body: numeric value in µM, unit text excluded.

| compound | TGI [µM] |
| --- | --- |
| CNC[C@@H](NC(=O)c1ccc(-c2nc([C@H]3CC[C@H](O)[C@@H](F)C3)cnc2N)cc1F)c1cc(F)cc(Br)c1 | 30.5 |
| Cc1c2cccc(Sc3ccccc3)c2c2c3c(cccc13)[S+](c1ccccc1)C2 (configuration not stated) | 3.57 |
| N=C(N)c1ccc(-c2ccc(-c3cccs3)o2)cc1 | 3.63 |
| CC(C)S(=O)(=O)ON1C(=O)c2ccc(N(C)C)cc2C1=O | 38.8 |

Incoming: What measured TGI goes with O=C(Nc1ccc(-n2ccc3c(NC(=O)c4ccccc4)ncnc32)cc1)c1ccc(Cl)c(C(F)(F)F)c1 ?
Outgoing: 24.5

Incoming: What measured TGI goes with Cc1ccccc1N1C(N)=C(C#N)C(C#N)(C#N)C1c1ccccc1 (configuration not stated) ?
Outgoing: 32

Incoming: What measured TGI goes with Cc1ccc(S(=O)(=O)/N=C(\NO)Nc2ccc(Cl)c(Cl)c2)cc1 ?
Outgoing: 15.3

Incoming: What measured TGI goes with S=c1[nH]nc(C23CC4CC(CC(C4)C2)C3)n1-c1ccc(Cl)cc1 ?
Outgoing: 71.4

Incoming: What measured TGI goes with CCCCCCCCCCCCCC(=S)N/C=C/OC ?
Outgoing: 57

Incoming: What measured TGI goes with Clc1ccc(-c2nc(-c3ccccc3)cn3ccnc23)cc1 ?
Outgoing: 46.5
